The reported measurements were obtained from ChEMBL document CHEMBL2311257.

Tested on: Radical scavenging activity
Assay: Antioxidant activity assessed as DPPH radical scavenging activity in ethanol solution at 25 ug/mL
Type: functional
measurement-type: Activity

Observe how each entry below is paired with its result.
Cc1cc(O)c(C(C)(C)C)cc1/N=C/c1ccccc1O	69.6%
Cc1cc(O)c(C(C)C)cc1/N=C/c1ccccn1	58.4%
Cc1cc(/N=C/c2ccc(F)cc2)c(C(C)C)cc1O	58.8%
COc1cc(/C=N/c2cc(C)c(O)cc2C(C)C)cc(OC)c1OC	66.1%

Take each entry in turn and give its Activity.
1. COc1cc(/C=N/c2cc(C(C)C)c(O)cc2C)cc(OC)c1OC
2. Cc1cc(O)c(C(C)C)cc1/N=C/c1ccc(C(C)(C)C)cc1

Out:
1. 65.4%
2. 66.2%

---

System: Radical scavenging activity
Experiment: Antioxidant activity assessed as DPPH radical scavenging activity in chloroform solution at 25 ug/mL
Format: functional
# label = 1 if Activity >= 70% else -1

COc1cc(/C=N/c2cc(C)c(O)cc2C(C)C)cc(OC)c1OC	-1

In: Tell me whether Activity is at least 70% here: Cc1cc(O)c(C(C)(C)C)cc1/N=C/c1cc(Br)cc(Br)c1O
Out: 1

In: Tell me whether Activity is at least 70% here: COc1ccc(/C=N/c2cc(C(C)C)c(O)cc2C)cc1
Out: 1

In: Tell me whether Activity is at least 70% here: COc1ccc(/C=N/c2cc(C)c(O)cc2C(C)C)cc1
Out: -1

In: Tell me whether Activity is at least 70% here: COc1cc(/C=N/c2cc(C)c(O)cc2C(C)C)cc(OC)c1
Out: -1

In: Tell me whether Activity is at least 70% here: Cc1cc(/N=C/c2ccccc2O)c(C(C)C)cc1O
Out: -1

---

System: Radical scavenging activity
Experiment: Antioxidant activity assessed as DPPH radical scavenging activity in chloroform solution at 50 ug/mL
Format: functional
# label = 1.0 if Activity >= 80% else 0.0

Record excerpt, results attached:
COc1cc(/C=N/c2cc(C(C)(C)C)c(O)cc2C)cc(OC)c1	1.0
Cc1cc(O)c(C(C)C)cc1/N=C/c1cc(Br)c(O)c(Br)c1	0.0
Cc1cc(O)c(C(C)(C)C)cc1/N=C/c1cc(Br)c(O)c(Br)c1	1.0
Cc1cc(/N=C/c2ccccc2O)c(C(C)C)cc1O	1.0
Cc1cc(O)c(C(C)(C)C)cc1/N=C/c1cc(Br)cc(Br)c1O	1.0

In: Tell me whether Activity is at least 80% here: Cc1cc(O)c(C(C)C)cc1/N=C/c1ccccc1O
Out: 1.0

In: Tell me whether Activity is at least 80% here: COc1cc(/C=N/c2cc(C(C)C)c(O)cc2C)cc(OC)c1OC
Out: 1.0

In: Tell me whether Activity is at least 80% here: Cc1cc(/N=C/c2ccc(O)cc2)c(C(C)C)cc1O
Out: 0.0

In: Tell me whether Activity is at least 80% here: COc1cc(/C=N/c2cc(C(C)C)c(O)cc2C)cc(OC)c1
Out: 1.0

In: Tell me whether Activity is at least 80% here: Cc1cc(O)c(C(C)C)cc1/N=C/c1ccc(O)cc1
Out: 1.0

In: Tell me whether Activity is at least 80% here: COc1ccc(/C=N/c2cc(C(C)(C)C)c(O)cc2C)cc1
Out: 1.0

In: Tell me whether Activity is at least 80% here: COc1cc(/C=N/c2cc(C)c(O)cc2C(C)C)cc(OC)c1OC
Out: 0.0

In: Tell me whether Activity is at least 80% here: COc1ccc(/C=N/c2cc(C(C)C)c(O)cc2C)cc1
Out: 1.0
